Please provide measured CLint scaled for the entries that follow.
protocolSummary: Intrinsic clearance in human microsomes
Type: ADME, Microsome
Give bare numbers, in mL/min/kg.

Worked cases, CLint scaled given:
COC(=O)N[C@H](C(=O)N1CCC[C@H]1c1nc2ccc([C@H]3CC[C@H](c4ccc5nc([C@@H]6CCCN6C(=O)[C@@H](NC(=O)OC)C(C)C)[nH]c5c4)N3c3ccc(N4CCCCC4)c(F)c3)cc2[nH]1)C(C)C | 140
COC(=O)N[C@H](C(=O)N1CCC[C@H]1c1nc2ccc([C@H]3CC[C@H](c4ccc5nc([C@@H]6CCCN6C(=O)[C@@H](NC(=O)OC)C(C)C)[nH]c5c4)N3c3ccc(C(C)(C)C)cc3)cc2[nH]1)C(C)C | 122
COC(=O)N[C@H](C(=O)N1CCC[C@H]1c1nc2cc([C@H]3CC[C@H](c4ccc5[nH]c([C@@H]6CCCN6C(=O)[C@@H](NC(=O)OC)C(C)C)nc5c4)N3c3cc(F)c(N4CCCCC4)c(F)c3)ccc2[nH]1)C(C)C | 175

Then this compound:
Provide one value: measured CLint scaled of COC(=O)N[C@H](C(=O)N1CCC[C@H]1c1nc2ccc([C@H]3CC[C@H](c4ccc5nc([C@@H]6CCCN6C(=O)[C@@H](NC(=O)OC)C(C)C)[nH]c5c4)N3c3ccc(N4CCOCC4)cc3)cc2[nH]1)C(C)C
113
